Experimental Endpoint: melting point

# example entries with known answers
COc1nc2ccc(Br)cc2c2c1C(C)(O)c1ccccc1-2 (stereo not given) = 159 to 160 °C
O=c1ccc2cc([N+](=O)[O-])cc(-c3cccc4ccccc34)c2[nH]1 = 234 to 235 °C
CC(=O)NNC(=O)c1[nH]c2ccccc2c1Cl = 253 to 255 °C
CCCCCCCCCCCCCCOc1ccc(CN(C(=O)NC)c2cccc(CBr)c2)cc1 = 70 to 73 °C

# context switch: different molecule, same melting point
Look up and report measured melting point for this entry: O=C1CC(=CN2CCOCC2)Oc2c(OCc3ccccc3)cccc21
107 to 108 °C

* * *

Experimental Endpoint: melting point

# example entries with known answers
O=C(O)C(=O)Nc1ccccc1C(=O)NC1CCN(C2CCCCC2)C1 (stereo not given) = 268 to 270 °C
CCCN(CCC)C1Cc2c[nH]c3ccc(C(=O)c4ccccc4)c(c23)C1 (stereo not given) = 150 °C
CN(C)CCc1c[nH]c2ccc(C#CCOCc3ccccc3)cc12 = 93 to 95 °C
CCCCC/C=C\C/C=C\CCCCCCC[C@@H](C[C@@H]1OC(=O)[C@H]1CC)OC(=O)[C@H](CC(C)C)NC=O = 48 to 53 °C
Cn1c2ccccc2c(=NN=C2NCCS2)c2c(Cl)cccc21 = 206 to 207 °C
CCOC(=O)N1CCC(=C2c3ccc(Cl)cc3SCc3cccnc32)CC1 = 154 to 157 °C
CCCCc1oc2ccccc2c1C(=O)c1ccc2c(Br)c(OC(Cc3ccccc3)C(=O)O)ccc2c1 (stereo not given) = 165 to 167 °C
CC1=C(C)CC2C(C1)C(=O)NS2=O (stereo not given) = 135 to 137 °C

Look up and report measured melting point for this entry: COc1cc(-c2cnc3[nH]cc(C(=O)N4CCCC4)c3n2)cc(OC)c1OC
210 to 212 °C

Look up and report measured melting point for this entry: COCCCn1nnnc1-c1cc(-c2cc(C(C)C)ccc2OC)c(OCc2ccccc2)cc1OCc1ccccc1
102 to 104 °C

* * *

Experimental Endpoint: melting point

# example entries with known answers
Cc1c(N2C(=O)C[C@@](O)(C3CC3)[C@@H]2C)ccc(C#N)c1Cl = 231 to 236 °C
CC(=O)N(C(C)=O)c1ccc(Br)c([N+](=O)[O-])c1OCc1ccccc1 = 148 °C
CC(C)N(Cc1nc(-c2ncn3c2CN(C)C(=O)c2c(Cl)cccc2-3)no1)C(C)C = 58 to 63 °C

Look up and report measured melting point for this entry: CNC(=O)NS(=O)(=O)c1cc2c(cc1OC)OCCC2CNC(=O)c1cc(Cl)ccc1OC (single isomer, unassigned; (+))
147 to 148 °C

Look up and report measured melting point for this entry: O=S(=O)(CCl)c1c(Cl)nc(Cl)nc1Cl
152 to 153 °C

Look up and report measured melting point for this entry: O=C(CSc1ccccc1)Nc1c(Cl)ccc2nc(N3CC[C@@H](O)C3)ccc12
246 to 249 °C

* * *

Experimental Endpoint: melting point

Look up and report measured melting point for this entry: Cc1oc(C=Cc2ccc(Cl)cc2)nc1CC#N
124 to 125 °C

* * *

Experimental Endpoint: melting point

# example entries with known answers
N#Cc1ccc2nc3c(c(=O)n2c1)CSC3 = 256 to 257 °C
O=C(O)CCCNC(=O)c1ccccc1NC(=O)c1ccccc1Cl = 110 to 112 °C

Look up and report measured melting point for this entry: COc1ccc(C(NC(C)=O)C(=O)c2ccc(Cl)cc2)cc1 (stereo not given)
140 °C

Look up and report measured melting point for this entry: O=C(O)c1cc(O)c(I)c(O)c1
245 to 248 °C

Look up and report measured melting point for this entry: COc1ccc(-c2nc(N)sc2CCN2CC=C(c3ccccc3)CC2)cc1
163 °C

Look up and report measured melting point for this entry: COc1ccc(CCn2ccc3ccc(-c4cccc(C(=O)NCCC#N)c4)nc32)cc1OC
138 to 139 °C
